Target: human BRS-3 (subtype 3 of the human bombesin receptor) (Homo sapiens)
Construct: single-cell clone selected
Sequence (P32247 1-399): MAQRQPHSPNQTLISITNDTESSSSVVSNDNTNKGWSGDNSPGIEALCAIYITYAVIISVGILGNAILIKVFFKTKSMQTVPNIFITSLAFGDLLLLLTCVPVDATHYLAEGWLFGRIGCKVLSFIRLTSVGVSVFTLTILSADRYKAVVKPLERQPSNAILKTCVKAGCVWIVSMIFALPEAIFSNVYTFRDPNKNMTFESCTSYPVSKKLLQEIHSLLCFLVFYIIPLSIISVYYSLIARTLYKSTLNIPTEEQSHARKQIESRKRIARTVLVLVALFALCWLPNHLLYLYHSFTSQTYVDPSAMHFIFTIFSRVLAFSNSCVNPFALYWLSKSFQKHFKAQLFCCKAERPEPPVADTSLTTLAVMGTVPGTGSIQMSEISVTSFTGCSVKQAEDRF
Test: FLIPR test: agonistic activity on BRS-3 (Ca2+ fluorescence, Fluo4) in transfected CHO cells
Conditions: CHO-K1 cells co-expressing human BRS-3 and human Gα16; 50% activation relative to maximum response of nonapeptide [D-Phe6,β-Ala11,Phe13,Nle14]Bn(6-14) (=100%)
Square brackets hold non-standard residues; d marks the D form. Peptide text beside a SMILES is read from it. * marks the point of attachment. NHPhenethyl = c1ccc(CCN*)cc1; PhAc = O=C(Cc1ccccc1)*
measured quantity: EC50 (nM)

Observe how each entry below is paired with its result.
O=C(N/N=C/c1ccco1)N[C@H](Cc1c[nH]c2ccccc12)C(=O)NCCc1ccccc1	1.5
O=C(CN1CCC(Cc2ccccc2)CC1)N[C@H](Cc1c[nH]c2ccccc12)C(=O)NCCc1ccccc1	30

(I) C[C@H](NC(=O)Cc1ccccc1)C(=O)N[C@H](Cc1c[nH]c2ccccc12)C(=O)NCCc1ccccc1 [Example 2] (PhAc-Ala-[dW]-NHPhenethyl)
(II) O=C(CNCc1ccccc1)NC(Cc1c[nH]c2ccccc12)C(=O)NCCc1ccccc1 (stereo not shown)
(III) O=C(Cc1cccnc1)NNC(=O)N[C@H](Cc1c[nH]c2ccccc12)C(=O)NCCc1ccccc1
*Q* List these items ordered by EC50, big to small. Output spec: a listing of the labels in the requested order.
*A* II, I, III

====

Biological target: human BRS-3 (subtype 3 of the human bombesin receptor) (Homo sapiens, UniProt P32247)
Construct: expressed in transfected cells; host or cells: CHO-K1 cells, stably transfected with RD-HGA16 (human Gα16) and pcDNA3.1(-)-BRS-3; single-cell clone selected
Experiment: FLIPR test: agonistic activity on BRS-3 (Ca2+ fluorescence, Fluo4) in transfected CHO cells
Type: cell-based
Settings: CHO-K1 cells co-expressing human BRS-3 and human Gα16; 50% activation relative to maximum response of nonapeptide [D-Phe6,β-Ala11,Phe13,Nle14]Bn(6-14) (=100%)
From the text: For this, CHO cells (=“Chinese hamster ovary cells”) initially were transfected in known manner with an expression vector for the subtype 3 of the human bombesin receptor, i.e. BRS-3. The cDNA of the human BRS-3 (nucleotide sequence under GenBank Accession No. L08893) was excised from the plasmid vector pGEM4 (from Promega, USA) using the restriction endonuclease EcoRI and was subcloned into the expression vector pcDNA3.1(−) (from Invitrogen, USA). […]
measured quantity: EC50 (nM)

Before answering, review these 4 worked examples.
O=C(CNCc1cccnc1)NC(Cc1c[nH]c2ccccc12)C(=O)NCCc1ccccc1 (stereo not drawn) [Example 23]	21
O=C(Cc1ccccc1)NNC(=O)NC(Cc1c[nH]c2ccccc12)C(=O)NCCc1ccccc1 (stereo not drawn) [Example 27]	3.1
CC(NC(=O)Cc1cccnc1)C(=O)NC(Cc1c[nH]c2ccccc12)C(=O)NCCc1ccccc1 (stereo not drawn) [Example 19]	32
O=C(NNCc1ccc(Cl)cc1)N[C@H](Cc1c[nH]c2ccccc12)C(=O)NCCc1ccccc1 [Example 5]	6

(A) O=C(Cc1ccc(Cl)cc1)NNC(=O)NC(Cc1c[nH]c2ccccc12)C(=O)NCCc1ccccc1 (stereo not drawn) [Example 28]
(B) CC(NCc1ccc(Cl)cc1)C(=O)N[C@H](Cc1c[nH]c2ccccc12)C(=O)NCCc1ccccc1 (mixture of isomers) [Example 3]
*Q* Which value of EC50 is numerically greater: that of A or that of B ? Label of pick, please.
*A* B
